Origin of measurements: patent US20250092039A1

- Target System: KRAS-G12V/RAF1 (Homo sapiens (Human), UniProt P01116, G12V)
- Sequence (P01116-2 other isoform, or with tags, fused parts or gaps G12V): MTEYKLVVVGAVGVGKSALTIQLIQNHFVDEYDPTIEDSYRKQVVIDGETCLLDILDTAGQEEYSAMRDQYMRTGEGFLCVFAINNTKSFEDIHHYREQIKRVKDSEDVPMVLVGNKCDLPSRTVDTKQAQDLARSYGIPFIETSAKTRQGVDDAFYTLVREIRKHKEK
- Assay Info: KRAS/RAF1 binding inhibition assay (AlphaScreen)
- Method: Binding affinity against GTP-bound KRAS of the compounds disclosed herein was measured by monitoring the interaction of guanosine 5′-[β,γ-imido]triphosphate-bound (GppNHp-bound) KRAS with the RBD domain of RAF1 in the presence of the test compound. […] The IC50 values were determined by nonlinear regression of plots of [inhibitor] vs. percentage of inhibition with variable slope, analyzed using GraphPad Prism (Version 9).
pIC50: −log10 of the molar value.
Recorded Endpoint: pIC50

Query: Please tell me: pIC50 of "CCc1c(F)ccc2cc(O)cc(-c3ncc4c(N5CCC[C@@](C)(O)C5)nc(OCC5(CN6CCC7(CC6)CC(F)(CN6CCN(c8ccc(C(=O)N[C@H]9CCC(=O)NC9=O)c(F)c8)CC6)C7)CC5)nc4c3F)c12" , system KRAS-G12V/RAF1 (Homo sapiens (Human), UniProt P01116, G12V)?
Response: 6.70 to 7.70

Query: Continue with "CCc1c(F)ccc2cc(O)cc(-c3ncc4c(N5CCC[C@@](C)(O)C5)nc(OCC5(CN6CCC(N7CCC(N8CCN(c9ccc%10c(c9)CN([C@H]9CCC(=O)NC9=O)C%10=O)CC8)CC7)CC6)CC5)nc4c3F)c12"
Response: > 7.70

Query: Continue with CCc1c(F)ccc2cc(O)cc(-c3ncc4c(N5CCC[C@@](C)(O)C5)nc(OCC5(CN6CCC(C)(CN7CCN(C8CCN(c9ccc%10c(c9)CN(C9CCC(=O)NC9=O)C%10=O)CC8)CC7)CC6)CC5)nc4c3F)c12 (some centres unmarked)
Response: > 7.70

Query: Continue with "CCc1c(F)ccc2cc(O)cc(-c3ncc4c(N5CCC[C@@](C)(O)C5)nc(OCC5(CN6CC7(CCC(F)(CN8CCN(c9ccc(C(=O)N[C@H]%10CCC(=O)NC%10=O)c(F)c9)CC8)CC7)C6)CC5)nc4c3F)c12"
Response: < 6.70

Query: Continue with "CCc1c(F)ccc2cc(O)cc(-c3ncc4c(N5CCOC[C@](C)(O)C5)nc(OCC5(CN6CCC(CN7CCN(c8ccc9c(c8)CN([C@H]8CCC(=O)NC8=O)C9=O)CC7)CC6)CC5)nc4c3F)c12"
Response: < 6.70
